Measured values drawn from patent US20250163065A1 for this set.

Please respond with reported half-life for every item in the list.
# procedure_summary: Pharmacokinetics and brain distribution in mice after single intraperitoneal injection
# Assay type: in vivo, male C57 mice
# setup_conditions: male, C57, ip; mouse, 10 mg/kg intraperitoneal, plasma, mean n=3; read-out: T1/2 Plasma (converted)
Answers are plain numbers, in min.

| smiles_record | measurement_name | reading |
| --- | --- | --- |
| C[C@H](NC(=O)Cn1ncc2cccn2c1=O)c1ccc(F)cc1 | half-life | 42 |

Attention now turns to another entry.
Would you kindly share the measured half-life for "C[C@H](NC(=O)Cn1ncc2cccn2c1=O)c1ccc(C(F)(F)F)cc1" ?
31.2

###

# procedure_summary: Pharmacokinetics and brain distribution in mice after single intraperitoneal injection
# Type: in vivo, male C57 mice
# setup_conditions: male, C57, ip; mouse, 10 mg/kg intraperitoneal, brain tissue, mean n=3; read-out: T1/2 Brain (converted)
measurement_name: half-life

| compound | half-life |
| --- | --- |
| C[C@H](NC(=O)Cn1ncc2cccn2c1=O)c1ccc(C(F)(F)F)cc1 [Compound I-32] | 31.8 min |

// moving on: another record for half-life
Param item = C[C@H](NC(=O)Cn1ncc2cccn2c1=O)c1ccc(F)cc1 [Compound I-1] ; retrieve measured half-life.
19.2 min
